Documented pEC50 across a set of compounds
assay: Effective concentration required to achieve 50% protection of MT-4 cells against the cytopathic effect of HIV-1 virus.; format: functional, cell-based; conditions: Human immunodeficiency virus 1, MT4
pEC50: −log10 of the molar value.
metric_name: pEC50

{"compound": "CCOCn1c(Cc2cc(C)cc(C)c2)c(C(C)C)c(=O)[nH]c1=O", "numeric_value": 9.22}
{"compound": "CCCCn1c(Cc2ccccc2)c(C(C)C)c(=O)[nH]c1=O", "numeric_value": 7.38}
{"compound": "CCCCn1c(Cc2ccccc2)c(CC)c(=O)[nH]c1=O", "numeric_value": 6.68}
{"compound": "Cc1cc(C)cc(Cc2c(C(C)C)c(=O)[nH]c(=O)n2COCCO)c1", "numeric_value": 8.57}
{"compound": "CCc1c(Cc2cc(C)cc(C)c2)n(COCCO)c(=O)[nH]c1=O", "numeric_value": 7.89}
{"compound": "CCOCn1c(Cc2ccccc2)c(C(C)C)c(=O)[nH]c1=O", "numeric_value": 8.38}
{"compound": "Cc1c(Sc2ccccc2)n(COCCO)c(=O)[nH]c1=O", "numeric_value": 5.15}
{"compound": "CCc1c(Cc2ccccc2)n(COCCO)c(=O)[nH]c1=O", "numeric_value": 6.46}
{"compound": "CCOCn1c(Cc2cc(C)cc(C)c2)c(CC)c(=O)[nH]c1=O", "numeric_value": 8.80}
{"compound": "COCCn1c(Cc2ccccc2)c(C(C)C)c(=O)[nH]c1=O", "numeric_value": 7.28}
{"compound": "CCOCn1c(Cc2ccccc2)c(CC)c(=O)[nH]c1=O", "numeric_value": 7.39}
